Values were extracted from the supplement of paper PMC10567573.

Provide the recorded protein stability index for the entries that follow.
B1: FAM46C (parent)
chain: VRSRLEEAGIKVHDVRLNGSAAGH

Variants of: B1
Assay: protein stability index of a GFP-peptide fusion (GPS, HEK-293T) (PSI 1-6); higher = more stable;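 also: lentivirally expressed fusions sorted by FACS into six bins by GFP to DsRed ratio, PSI derived from sequencing read proportions per bin multiplied by bin number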
Settings: c terminus: a fixed tail appended
Give bare numbers.

Sample answers from the record:
>  <MUTANT NAME>
E6T

>  <protein stability index>
2.44

$$$$
>  <MUTANT NAME>
E7K

>  <protein stability index>
2.45

$$$$
>  <MUTANT NAME>
A22Y

>  <protein stability index>
1.94

$$$$
>  <MUTANT NAME>
D14T

>  <protein stability index>
2.8

$$$$
>  <MUTANT NAME>
V1P

>  <protein stability index>
4.38

$$$$

For every item below, please supply its protein stability index.
1. H24Q
2. A8H
3. A21C
4. R4W
5. V12I
6. K11G
7. E7W
8. G23I

Result ::
2.67
3.12
1.73
2.33
2.67
3.13
1.99
1.6

For every item below, please supply its protein stability index.
1. G9S
2. V15M
3. G19M
4. G23D
5. A8R
6. R4G
7. A21P

Result ::
1: 3.9; 2: 3.41; 3: 1.83; 4: 2.44; 5: 1.96; 6: 3.25; 7: 1.8

For every item below, please supply its protein stability index.
1. N18P
2. A8F

Result ::
1: 3.12; 2: 1.85
